target: ePHF (human, UniProt P10636); experiment: ELISA
Sequence (P10636 2-758): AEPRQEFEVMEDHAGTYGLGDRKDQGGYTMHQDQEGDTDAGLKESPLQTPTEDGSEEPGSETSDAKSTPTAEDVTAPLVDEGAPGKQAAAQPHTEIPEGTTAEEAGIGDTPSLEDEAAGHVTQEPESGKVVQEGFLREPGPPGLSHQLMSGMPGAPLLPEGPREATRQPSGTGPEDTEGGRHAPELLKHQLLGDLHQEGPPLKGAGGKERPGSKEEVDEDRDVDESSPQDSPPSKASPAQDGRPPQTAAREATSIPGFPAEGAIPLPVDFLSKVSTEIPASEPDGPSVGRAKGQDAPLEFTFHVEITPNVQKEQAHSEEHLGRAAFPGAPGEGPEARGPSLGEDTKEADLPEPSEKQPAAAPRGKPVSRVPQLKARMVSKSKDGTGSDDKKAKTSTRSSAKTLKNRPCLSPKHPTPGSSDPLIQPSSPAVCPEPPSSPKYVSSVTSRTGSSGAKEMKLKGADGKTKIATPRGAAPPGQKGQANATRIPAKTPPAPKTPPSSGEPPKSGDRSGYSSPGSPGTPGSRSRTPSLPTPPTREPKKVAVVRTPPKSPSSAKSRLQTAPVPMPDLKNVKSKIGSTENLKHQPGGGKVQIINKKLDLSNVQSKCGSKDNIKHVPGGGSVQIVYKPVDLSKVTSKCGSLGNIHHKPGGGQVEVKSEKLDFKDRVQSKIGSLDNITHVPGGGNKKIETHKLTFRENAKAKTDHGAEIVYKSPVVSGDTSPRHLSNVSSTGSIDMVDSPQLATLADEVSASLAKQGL
RECORDED_ENDPOINT: EC50 (nM)
Numbers only; they are read as nM.

# input Requested read-out: EC50. Entry: V0024 (antibody, V domains shown, enriched paired helical filament tau, hyperphosphorylated) VH: QVQLQQPGTELVKPGASVKLSCKASGYTFTRFWMHWVKQRPGQGLEWIGNINPNNGGTDNNERFKSKATLTVDRSSSTAYMQLSSLTSEDSAVYYCARGTGTGAMDYWGQGTSVTVSS VL: DVVMTQTPLSLPVSLGDQASISCRSSQSLVHSNGNTHLYWYLQKPGQSPKLLIYRVSSRFSGVPDRFSGSGSGTDFTLKISRVEAEDLGVYFCFQGTHVPRTFGGGTKLEIK
# output 0.125
